- assayProcedure: small molecules boosting NK-mediated OVCAR3 lysis – imaging, primary NK cells, calcein-AM imaging, primary screen (AID 1508625);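 also: compound given to NK cells 16 h before adding targets at 1.5 to 1 ratio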;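 as to Z-score: more negative robust z means stronger NK killing of tumor cells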
- assayConditions: OVCAR3 lysis by primary NK cells, at 5 µM; measured here: robust Z-score, single-point normalisation
// z-score lookup, one value per entry
// return a plain number; no unit text

The following compounds have reported results that may help.
compound	z-score
O=C(O)CSCCC(=O)Nc1ccc(F)cc1	-1.93
COc1ccc(Cn2c(=S)[nH]c3cc(C(=O)N4CCCCC4)ccc3c2=O)cc1	-2.67
COC(=O)c1ccc(COC(=O)c2ccncc2)cc1	-0.393
Cc1ccc(-n2c(O)c(C=C3C=Nc4ccccc43)sc2=O)cc1	-1.74

Supply reported z-score belonging to this compound: O=[N+]([O-])c1ccc(C=Nn2c(CO)nc3ccccc32)cc1 -1.6

Supply reported z-score belonging to this compound: Cc1cc(NC(=O)CSc2nc3ccc(Br)cc3c3nc4ccccc4n23)no1 -1.36

Supply reported z-score belonging to this compound: COc1ccc(OC)c(-n2c(=S)[nH]c3cc(C(=O)Nc4ccc5c(c4)CCC5)ccc3c2=O)c1 -1.16

###

- assayProcedure: small molecules boosting NK-mediated OVCAR3 lysis – imaging, primary NK cells, calcein-AM imaging, primary screen (AID 1508625);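 also: compound given to NK cells 16 h before adding targets at 1.5 to 1 ratio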
- assayConditions: OVCAR3 lysis by primary NK cells, at 5 µM
// corrected activity, negative = more killing lookup, one value per entry

molecule	measuredResult
CCOC(=O)C1=C(N)OC2=C(C(=O)CC(C)(C)C2)C1c1ccccc1[N+](=O)[O-] (centres undefined)	-1.89%
Cc1cc([N+](=O)[O-])ccc1N=Cc1ccc(Br)s1	-2.22%
CC(C)CCNC(=O)c1c[nH]c2ccc(S(=O)(=O)N3CC(C)CC(C)C3)cc2c1=O (centres undefined)	-3.33%
Cc1ccc(NC(=O)CSc2nnc(N3C(=O)c4ccccc4C3=O)s2)c(C)c1	-5.41%
O=C(NCc1cccc(Cl)c1)c1ccc2c(=O)n(Cc3cccc(Br)c3)c(=S)[nH]c2c1	-6.41%

Supply reported corrected activity, negative = more killing belonging to this molecule: O=C(Cn1cnc2sc3c(c2c1=O)CCCC3)NCCCC(=O)Nc1ccccc1F -3.19%

Supply reported corrected activity, negative = more killing belonging to this molecule: Cc1c(C(=O)NC(C)C)oc2ccc(S(=O)(=O)N3CCOCC3)cc12 -3.41%

Supply reported corrected activity, negative = more killing belonging to this molecule: Cc1c(C(=O)Nc2ccccc2O)cccc1[N+](=O)[O-] -4.28%

Supply reported corrected activity, negative = more killing belonging to this molecule: COc1ccc(C=NNC(=O)c2cc(C34CC5CC(CC(C5)C3)C4)[nH]n2)cc1O 0.0734%

Supply reported corrected activity, negative = more killing belonging to this molecule: CC(=O)SCCC(=O)N1C(C)CCCC1C(=O)O (centres undefined) -3.02%

Supply reported corrected activity, negative = more killing belonging to this molecule: COc1ccc(C(N)=NOC(=O)c2cc(Cl)ccc2Cl)cc1 -1.41%

Supply reported corrected activity, negative = more killing belonging to this molecule: c1ccc(-c2ccccc2OCCN2CCNCC2)cc1 1.89%

Supply reported corrected activity, negative = more killing belonging to this molecule: Cc1ccc(C(=O)Nc2ccc(NC(=O)c3ccc(C(C)(C)C)cc3)cc2)cc1[N+](=O)[O-] -2.5%

Supply reported corrected activity, negative = more killing belonging to this molecule: O=C(Cc1ccccc1)Nc1ccc2oc(-c3ccc(I)cc3)nc2c1 -1.02%

Supply reported corrected activity, negative = more killing belonging to this molecule: COc1ccc(OC)c(NC(=O)C(N)=O)c1 1.08%

Supply reported corrected activity, negative = more killing belonging to this molecule: COc1ccc2c(c1)c(C(C)=O)c(C)n2-c1ccccc1C -0.941%

Supply reported corrected activity, negative = more killing belonging to this molecule: Cc1ccc(-c2nc3ccccc3c(C(=O)O)c2C)cc1 -2.28%

Supply reported corrected activity, negative = more killing belonging to this molecule: CC(C(=O)NCCCN1CCOCC1)c1ccc([N+](=O)[O-])cc1 (centres undefined) -5.52%

Supply reported corrected activity, negative = more killing belonging to this molecule: CC(=O)Nc1cccc(N=Cc2cc(Cc3ccccc3)cc([N+](=O)[O-])c2O)c1 -1.97%

Supply reported corrected activity, negative = more killing belonging to this molecule: CCOc1ccc(NS(=O)(=O)c2ccc3[nH]cc(C(=O)NCC4CCCO4)c(=O)c3c2)cc1 (centres undefined) -2.15%

Supply reported corrected activity, negative = more killing belonging to this molecule: CN(C)c1ccc(C=CC=C2SC(=S)N(Cc3ccccc3)C2=O)cc1 -3.62%

Supply reported corrected activity, negative = more killing belonging to this molecule: COc1cccc(Nc2ncnc3sc(C)c(S(=O)(=O)N4CCC(C)CC4)c23)c1 -2.61%

Supply reported corrected activity, negative = more killing belonging to this molecule: COc1ccccc1N1CCN(C(=O)c2cnn3c(C(F)(F)F)cc(-c4ccc(C)cc4)nc23)CC1 -4.5%

Supply reported corrected activity, negative = more killing belonging to this molecule: O=C(c1cc(-c2ccc3c(c2)OCO3)nc2ccccc12)N1CCN(Cc2ccc3c(c2)OCO3)CC1 -3.33%

Supply reported corrected activity, negative = more killing belonging to this molecule: c1ccc(CN2CCN(Cc3ccc4ccccc4c3)CC2)nc1 -2.43%

###

// corrected activity, negative = more killing lookup, one value per entry
- assayProcedure: small molecules boosting NK-mediated OVCAR3 lysis – imaging, primary NK cells, calcein-AM imaging, primary screen (AID 1508625);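 also: compound given to NK cells 16 h before adding targets at 1.5 to 1 ratio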
- assayConditions: OVCAR3 lysis by primary NK cells, at 5 µM
Write the number in % without appending the unit.

The following compounds have reported results that may help.
compound	measuredResult
O=C(NN=Cc1ccccc1Cl)C(=O)Nc1cccc(C(F)(F)F)c1	-2.13
CCC(C)NC(=O)Cn1c(=O)n(-c2cc(OC)cc(OC)c2)c(=O)c2sccc21 (configuration not stated)	-7.6
CCOC(=O)c1c(NC(=O)c2ccccc2F)sc(C(=O)Nc2cccc(Cl)c2)c1C	-1.46
O=C(c1ccc(COCC(F)(F)F)o1)N1CCCCCC1	-2.9

Supply reported corrected activity, negative = more killing belonging to this compound: Cc1ccc(OCCCCNC2CCCCC2)c(C)c1 4.21

Supply reported corrected activity, negative = more killing belonging to this compound: COc1ccc(NC(=O)CN(C)S(=O)(=O)c2cccs2)cc1OC -4.46

Supply reported corrected activity, negative = more killing belonging to this compound: CSC1CCCCC1(O)CSc1nc2ccccc2o1 (configuration not stated) -4.44

Supply reported corrected activity, negative = more killing belonging to this compound: CC(=NNC(=S)Nc1cccc(C)c1)c1cccc(N)c1 -5.28

Supply reported corrected activity, negative = more killing belonging to this compound: Cc1ccc2nc(-c3ccc(Cl)c(NC(=O)Cc4ccccc4)c3)oc2c1 -3.3

Supply reported corrected activity, negative = more killing belonging to this compound: O=C1C(=Cc2ccccc2)SC(=S)N1C1CCS(=O)(=O)C1 (configuration not stated) -2.25

Supply reported corrected activity, negative = more killing belonging to this compound: CCCCN(C)C(=O)c1cc2c(=O)n3cccc(C)c3nc2s1 -6.29

Supply reported corrected activity, negative = more killing belonging to this compound: CCOC(=O)Cc1ccc(N(Cc2cccs2)S(=O)(=O)c2ccc([N+](=O)[O-])cc2)cc1 -7.32

###

- assayProcedure: small molecules boosting NK-mediated OVCAR3 lysis – imaging, primary NK cells, calcein-AM imaging, primary screen (AID 1508625);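 also: compound given to NK cells 16 h before adding targets at 1.5 to 1 ratio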
- assayConditions: OVCAR3 lysis by primary NK cells, at 5 µM
// corrected activity, negative = more killing lookup, one value per entry
Write the number in % without appending the unit.

Supply reported corrected activity, negative = more killing belonging to this compound: CSCCOC(=O)C1=C(C)NC(=O)NC1c1cccc([N+](=O)[O-])c1 (centres undefined) 0.214

Supply reported corrected activity, negative = more killing belonging to this compound: CC1(C)COC(c2ccccc2)=N1 -5.76

Supply reported corrected activity, negative = more killing belonging to this compound: CN(C)c1ccc(C(=O)N2N=C(c3ccc(Cl)cc3)CC2(O)C(F)(F)F)cc1 (centres undefined) -4.5

Supply reported corrected activity, negative = more killing belonging to this compound: Cc1cc(Cl)ccc1OCC(=O)Nc1cccc2c1C(=O)c1ccccc1C2=O -3.52

###

- assayProcedure: small molecules boosting NK-mediated OVCAR3 lysis – imaging, primary NK cells, calcein-AM imaging, primary screen (AID 1508625);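 also: compound given to NK cells 16 h before adding targets at 1.5 to 1 ratio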;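 as to Z-score: more negative robust z means stronger NK killing of tumor cells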
- assayConditions: OVCAR3 lysis by primary NK cells, at 5 µM; measured here: robust Z-score, single-point normalisation
// z-score lookup, one value per entry
// return a plain number; no unit text

The following molecules have reported results that may help.
molecule	measuredResult
COc1ccc(-c2ccc3c(N)c(C(=O)NCc4ccc(C(F)(F)F)cc4)sc3n2)cc1	-0.339
CCOc1ccc(-c2cc(C(=O)NN=Cc3cccnc3)[nH]n2)cc1	-2.15
COc1ccc(C=c2sc3nc4cc(C)c(C)cc4n3c2=O)cc1Br	-0.246
COc1ccc(C(=O)Nc2ccc3oc(-c4ccccc4)nc3c2)cc1OC	-1.28
N#Cc1c(NC(=O)CN2C(=O)C3CC=C(Cl)CC3C2=O)sc2c1CCC2 (stereo not drawn)	-0.0746
Cc1ccc(NC(=O)c2cc(S(=O)(=O)NCCc3ccccc3)ccc2F)cc1F	-1.35
C=CCn1c2ccccc2c2nnc(SCc3[nH]c(C(=O)OCC)c(C)c3C(C)=O)nc21	-0.435
CC(C)=NNC(=O)C(=O)Nc1cccc(Cl)c1	-1.56
CC(C)(C)c1ccc(C(=O)Nc2ccc(Cl)c(NC(=O)c3ccccc3)c2)cc1	-1.49
O=C(Nc1ccccc1C(=O)O)c1cc(S(=O)(=O)Nc2ccc(Br)cc2)ccc1Cl	-3.06

Supply reported z-score belonging to this molecule: Cc1ccc(NC(=O)Cc2[nH]c3ccccc3c2Sc2ccccc2)cc1 -0.584

Supply reported z-score belonging to this molecule: CC(C)C(CC(=O)O)NS(=O)(=O)c1ccc(F)cc1 (stereo not drawn) -0.924

Supply reported z-score belonging to this molecule: CCOC(=O)C1=C(N)OC2=C(C(=O)CC(C)(C)C2)C1c1ccc(O)cc1 (stereo not drawn) -1.28

Supply reported z-score belonging to this molecule: COCCCNC(=O)C1c2ccccc2C(=O)N(C)C1c1cccs1 (stereo not drawn) -1.13

Supply reported z-score belonging to this molecule: CCOc1ccc(Br)cc1S(=O)(=O)N1CCN(c2ccc(C)cc2C)CC1 -0.676

Supply reported z-score belonging to this molecule: Cn1c(SCC(=O)c2ccccc2)nc2c([nH]c3ccccc32)c1=O -1.41

Supply reported z-score belonging to this molecule: Cc1n[nH]c(C)c1CCC(=O)NN=Cc1ccccc1O -0.652

Supply reported z-score belonging to this molecule: CCN(CC)c1cc(O)c2c(c1N)C(=O)c1ccccc1C2=O -0.772

Supply reported z-score belonging to this molecule: CCOC(=O)c1cnc(SCc2ccccc2Cl)nc1N -0.473

Supply reported z-score belonging to this molecule: CCOc1ccc(NS(=O)(=O)c2ccc3[nH]cc(C(=O)NCC4CCCO4)c(=O)c3c2)cc1 (stereo not drawn) -0.527

Supply reported z-score belonging to this molecule: COc1ccc(Cc2nc3c4c5c(sc4ncn3n2)C(C)(C)NC(C)(C)C5)cc1OC -1.03

Supply reported z-score belonging to this molecule: COc1ccc(CN2C(=O)c3ccccc3C2C(=O)NCCCN2CC(C)CC(C)C2)cc1 (stereo not drawn) -0.869

Supply reported z-score belonging to this molecule: COC(=O)c1sc(N2C(=O)C(=O)C(=C(O)c3ccc(Cl)cc3)C2c2ccc(C)cc2)nc1C (stereo not drawn) -1.66

Supply reported z-score belonging to this molecule: COc1cc(C)c(NC(=O)c2ccccc2I)cc1C(C)C -1.89
